- target: GST-Bcl-XL (Homo sapiens, UniProt Q07817)
- Sequence (Q07817 whole entry): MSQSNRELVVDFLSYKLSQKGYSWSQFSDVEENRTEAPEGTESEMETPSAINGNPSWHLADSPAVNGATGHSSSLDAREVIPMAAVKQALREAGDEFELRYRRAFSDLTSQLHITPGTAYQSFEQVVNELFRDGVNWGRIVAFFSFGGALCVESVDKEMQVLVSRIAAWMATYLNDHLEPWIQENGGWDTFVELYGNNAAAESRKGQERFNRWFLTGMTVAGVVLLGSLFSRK
- assay remarks: TR-FRET binding assay, GST-Bcl-XL with F-Bak peptide probe
- particulars: TR-FRET Binding Affinity, GST-Bcl-XL, F-Bak peptide probe
- Description: Tb-anti-GST antibody was purchased from Invitrogen (Catalog No. PV4216). […] The samples were then mixed on a shaker for 1 minute and incubated for an additional 3 hours at room temperature. […] Fluorescence was measured on the ENVISION plate reader (Perkin Elmer) using a 340/35 nm excitation filter and 520/525 (F-Bak peptide) and 495/510 nm (Tb-labeled […] antibody) emission filters. […]
Please respond with 1.0 when measured Ki is strictly beneath 100 nM, and with 0.0 in all other cases.

For CC1(C)CCC(CN2CCN(c3ccc(C(=O)NS(=O)(=O)c4ccc(NC5CCN(CCCF)CC5)c([N+](=O)[O-])c4)c(Oc4ccc5[nH]ccc5c4)c3)CC2)=C(c2ccc(Cl)cc2)C1 , is the recorded Ki below the cut-off of 100 nM?
1.0

What about O=C(NS(=O)(=O)c1ccc(NCC2CCOCC2)c(S(=O)(=O)C(F)(F)F)c1)c1ccc(N2CCN(Cc3ccccc3-c3ccc(Cl)cc3)CC2)cc1Oc1ccc2[nH]ccc2c1 ?
0.0

What about CN(C)CCCNc1ccc(S(=O)(=O)NC(=O)c2ccc(N3CCN(CC4=C(c5ccc(Cl)cc5)CC(C)(C)CC4)CC3)cc2Oc2cccc3[nH]ccc23)cc1[N+](=O)[O-] ?
1.0

What about CC1(C)CCC(CN2CCN(c3ccc(C(=O)NS(=O)(=O)c4ccc(NCC5(O)CCCCC5)c([N+](=O)[O-])c4)c(Oc4ccc5[nH]ccc5c4)c3)CC2)=C(c2ccc(Cl)cc2)C1 ?
0.0

What about O=C(NS(=O)(=O)c1ccc(NCC2CCOCC2)c([N+](=O)[O-])c1)c1ccc(N2CCN(Cc3cc(OCCN4CCOCC4)ccc3-c3ccc(Cl)cc3)CC2)cc1Oc1ccccc1 ?
1.0

Further cases:
For CC1(C)CCC(CN2CCN(c3ccc(C(=O)NS(=O)(=O)c4cnc(OCCN5CCOCC5)c(C#N)c4)c(Oc4cccc5[nH]ccc45)c3)CC2)=C(c2ccc(Cl)cc2)C1 , is the recorded Ki below the cut-off of 100 nM?
0.0

What about CC1(C)CCC(CN2CCN(c3ccc(C(=O)NS(=O)(=O)c4ccc(NCCN5CCCCC5=O)c([N+](=O)[O-])c4)c(Oc4ccc5[nH]ccc5c4)c3)CC2)=C(c2ccc(Cl)cc2)C1 ?
0.0

What about CN(C)C1(CNc2ccc(S(=O)(=O)NC(=O)c3ccc(N4CCN(CC5=C(c6ccc(Cl)cc6)CC(C)(C)CC5)CC4)cc3Oc3ccc4[nH]ccc4c3)cc2[N+](=O)[O-])CCOCC1 ?
0.0

What about CC1(C)CCC(CN2CCN(c3ccc(C(=O)NS(=O)(=O)c4ccc(NC5CCN(CCCC(F)(F)F)CC5)c([N+](=O)[O-])c4)c(Oc4ccc5[nH]ccc5c4)c3)CC2)=C(c2ccc(Cl)cc2)C1 ?
0.0

What about CC(=O)N1CCC(Nc2ccc(S(=O)(=O)NC(=O)c3ccc(N4CCN(CC5=C(c6ccc(Cl)cc6)CC(C)(C)CC5)CC4)cc3Oc3cccc4[nH]ccc34)cc2[N+](=O)[O-])CC1 ?
0.0

What about CC1(C)CCC(c2ccc(Cl)cc2)=C(CN2CCN(c3ccc(C(=O)NS(=O)(=O)c4ccc(NCCCN5CCOCC5)c([N+](=O)[O-])c4)c(Oc4cccc5[nH]ccc45)c3)CC2)C1 ?
1.0

What about C[C@H](c1ccccc1-c1ccc(Cl)cc1)N1CCN(c2ccc(C(=O)NS(=O)(=O)c3ccc(NCC4CCOCC4)c([N+](=O)[O-])c3)c(Oc3cccc4[nH]ccc34)c2)CC1 ?
0.0

What about CN(C)CCOc1ccc(-c2ccc(Cl)cc2)c(CN2CCN(c3ccc(C(=O)NS(=O)(=O)c4ccc(NCCCN5CCCC5)c([N+](=O)[O-])c4)c(Oc4ccccc4)c3)CC2)c1 ?
1.0

###

- target: GST-Bcl-XL (Homo sapiens)
- assay remarks: TR-FRET binding assay, GST-Bcl-XL with F-Bak peptide probe
- particulars: TR-FRET Binding Affinity, GST-Bcl-XL, F-Bak peptide probe
The reader will find reported Ki values listed item by item below.
Give the value in nM but do not write nM after it.

Below, 3 molecules whose answers are already recorded.
Please give the measured Ki for this molecule: CC1(C)CCC(CN2CCN(c3ccc(C(=O)NS(=O)(=O)c4cnc(OCC5(F)CCOCC5)c(Cl)c4)c(Oc4cccc5[nH]ccc45)c3)CC2)=C(c2ccc(Cl)cc2)C1 [Example 405]
55.3

What about O=C(NS(=O)(=O)c1ccc(NCCCN2CCOCC2)c([N+](=O)[O-])c1)c1ccc(N2CCN(Cc3ccccc3-c3ccc(Cl)cc3)CC2)cc1Oc1ccccc1 [Example 155] ?
37.7

What about COCCCNc1ccc(S(=O)(=O)NC(=O)c2ccc(N3CCN(CC4=C(c5ccc(Cl)cc5)CC(C)(C)CC4)CC3)cc2Oc2cccc3[nH]ccc23)cc1[N+](=O)[O-] [Example 318] ?
151

Further cases:
Please give the measured Ki for this molecule: COCCOCCSc1ccc(S(=O)(=O)NC(=O)c2ccc(N3CCN(CC4=C(c5ccc(Cl)cc5)CC(C)(C)CC4)CC3)cc2Oc2cccc3[nH]ccc23)cc1[N+](=O)[O-] [Example 381]
24.2

What about CN1CCC(Nc2ccc(S(=O)(=O)NC(=O)c3ccc(N4CCN(CC5=C(c6ccc(Cl)cc6)CC(C)(C)OC5)CC4)cc3Oc3cccc4[nH]ccc34)cc2[N+](=O)[O-])CC1 [Example 145] ?
12

What about CC1(C)CCC(CN2CCN(c3ccc(C(=O)NS(=O)(=O)c4cnc(OCC5CCOCC5)c(Cl)c4)c(Oc4cccc5[nH]ncc45)c3)CC2)=C(c2ccc(Cl)cc2)C1 [Example 427] ?
85.6

What about CC1(C)CCC(CN2CCN(c3ccc(C(=O)NS(=O)(=O)c4ccc(OCC5COCCO5)c([N+](=O)[O-])c4)c(Oc4ccc5[nH]ccc5c4)c3)CC2)=C(c2ccc(Cl)cc2)C1 (centres unmarked) [Example 297] ?
283

What about CC1(C)CCC(CN2CCN(c3ccc(C(=O)NS(=O)(=O)c4ccc(NCCCN5CCOCC5)c(S(=O)(=O)C(F)(F)F)c4)c(Oc4ccc5[nH]ccc5c4)c3)CC2)=C(c2ccc(Cl)cc2)C1 [Example 348] ?
29.3

###

- target: GST-Bcl-XL (Homo sapiens)
- assay remarks: TR-FRET binding assay, GST-Bcl-XL with F-Bak peptide probe
- particulars: TR-FRET Binding Affinity, GST-Bcl-XL, F-Bak peptide probe
measure: Ki (nM)
Give the value in nM but do not write nM after it.

Below, 3 compounds whose answers are already recorded.
Please give the measured Ki for this compound: CN1CC(Nc2ccc(S(=O)(=O)NC(=O)c3ccc(N4CCN(CC5=C(c6ccc(Cl)cc6)CC(C)(C)CC5)CC4)cc3Oc3ccc4[nH]ccc4c3)cc2[N+](=O)[O-])CCC1=O (centres unmarked)
562

What about CN1CCN(Nc2ccc(S(=O)(=O)NC(=O)c3ccc(N4CCN(CC5=C(c6ccc(Cl)cc6)CCC(O)C5)CC4)cc3Oc3ccc4[nH]ccc4c3)cc2[N+](=O)[O-])CC1 (centres unmarked) ?
9.93

What about CC1(C)CCC(CN2CCN(c3ccc(C(=O)NS(=O)(=O)c4ccc(NCCCN5CCOCC5)c(S(=O)(=O)C(F)(F)F)c4)c(Oc4cccc5[nH]ccc45)c3)CC2)=C(c2ccc(Cl)cc2)C1 ?
24.2

Now take the following compound into account.
Please give the measured Ki for this compound: CC1(C)CCC(CN2CCN(c3ccc(C(=O)NS(=O)(=O)c4ccc(NCC5(CO)CCOCC5)c([N+](=O)[O-])c4)c(Oc4ccc5[nH]ccc5c4)c3)CC2)=C(c2ccc(Cl)cc2)C1
197

###

- target: GST-Bcl-2 (Homo sapiens, UniProt P10415)
- Sequence (P10415 whole entry): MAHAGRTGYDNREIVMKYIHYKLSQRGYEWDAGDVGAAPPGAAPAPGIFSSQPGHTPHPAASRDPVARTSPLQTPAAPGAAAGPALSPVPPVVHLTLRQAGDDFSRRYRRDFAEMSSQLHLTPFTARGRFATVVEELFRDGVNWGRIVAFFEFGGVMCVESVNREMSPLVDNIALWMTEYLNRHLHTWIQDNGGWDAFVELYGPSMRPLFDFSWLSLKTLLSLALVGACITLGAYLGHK
- assay remarks: TR-FRET binding assay, GST-Bcl-2 with F-Bak peptide probe
- particulars: TR-FRET Binding Affinity, GST-Bcl-2, F-Bak peptide probe
measure: Ki (pM)
Give the value in pM but do not write pM after it.

Please give the measured Ki for this compound: CC1(C)CCC(CN2CCN(c3ccc(C(=O)NS(=O)(=O)c4cnc(O[C@@H]5CCN(C(CF)CF)C5)c(Cl)c4)c(Oc4cccc5[nH]ncc45)c3)CC2)=C(c2ccc(Cl)cc2)C1
52

What about Cn1ncc(-c2ccc(Cl)cc2)c1CN1CCN(c2ccc(C(=O)NS(=O)(=O)c3ccc(NCC4CCOCC4)c([N+](=O)[O-])c3)c(Oc3ccc4[nH]ccc4c3)c2)CC1 ?
6990

What about CC1(C)CCC(CN2CCN(c3ccc(C(=O)NS(=O)(=O)c4ccc(NCCC(F)(F)F)c([N+](=O)[O-])c4)c(Oc4cccc5[nH]ccc45)c3)CC2)=C(c2ccc(Cl)cc2)C1 ?
949

###

- target: GST-Bcl-2 (Homo sapiens)
- assay remarks: TR-FRET binding assay, GST-Bcl-2 with F-Bak peptide probe
- particulars: TR-FRET Binding Affinity, GST-Bcl-2, F-Bak peptide probe
The reader will find reported pKi values listed item by item below.
Scale note: pKi = -log10(concentration in M).

Please give the measured pKi for this compound: CN(C)CCCNc1ccc(S(=O)(=O)NC(=O)c2ccc(N3CCN(CC4=C(c5ccc(Cl)cc5)CC(C)(C)CC4)CC3)cc2Oc2cccc3[nH]ccc23)cc1[N+](=O)[O-]
10.17

What about CC1(C)CCC(CN2CCN(c3ccc(C(=O)NS(=O)(=O)c4ccc(NC5CCN(CCCF)CC5)c([N+](=O)[O-])c4)c(Oc4ccc5[nH]ccc5c4)c3)CC2)=C(c2ccc(Cl)cc2)C1 ?
9.60

Now take the following compound into account.
Please give the measured pKi for this compound: CN1CCC(Nc2ccc(S(=O)(=O)NC(=O)c3ccc(N4CCN(CC5=C(c6ccc(Cl)cc6)CC(C)(C)C5)CC4)cc3Oc3cccc4[nH]ccc34)cc2[N+](=O)[O-])CC1
7.27
